- Tested on: Streptococcus pyogenes
- assay-overview: microbe, parasite or virus in culture
- Type: cell-based
- condition: Table 3
Please provide measured MIC S. pyogenes, G+ for the entries that follow.
Give just the number in µg/mL; leave the unit off.

Entry COc1cc(O)cc(/C=C/c2ccccc2)c1 [CL-3, 3-hydroxy-5-methoxystilbene] , MIC S. pyogenes, G+ reported as 16

Entry COc1cc(O)cc(/C=C/Oc2ccccc2C)c1 [Compound A11] , MIC S. pyogenes, G+ reported as 32

Entry COc1cc(O)cc(/C=C/Oc2cccc(OC)c2)c1 [Compound A8] , MIC S. pyogenes, G+ reported as 16

Entry COc1cc(O)cc(/C=C/Oc2cccc(C)c2)c1 [Compound A9] , MIC S. pyogenes, G+ reported as 32

Entry COc1cc(O)cc(/C=C/Oc2ccccc2)c1 [CL-1] , MIC S. pyogenes, G+ reported as 32

Entry COc1cc(O)cc(O/C=C/c2ccccc2)c1 [CL-2] , MIC S. pyogenes, G+ reported as 16

Entry COc1cc(O)cc(/C=C/Sc2ccccc2)c1 [CL-4] , MIC S. pyogenes, G+ reported as 8

Entry COc1ccc(O/C=C/c2cc(O)cc(OC)c2)cc1 [Compound A6] , MIC S. pyogenes, G+ reported as 32

Entry COc1cc(O)cc(/C=C/c2cccs2)c1 [CL-6] , MIC S. pyogenes, G+ reported as 32

Entry COc1cc(O)cc(/C=C/c2ccsc2)c1 [CL-5] , MIC S. pyogenes, G+ reported as 4

Entry COc1cc(O)cc(/C=C/Oc2ccc(C)cc2)c1 [Compound A10] , MIC S. pyogenes, G+ reported as 32

Origin of the recorded values: patent US8530512B2
